target: IRAK4 (Homo sapiens (Human)); experiment: IRAK4 Biochemical HTRF Kinase Assay; conditions: Table 5; multiple runs; read-out: IRAK4 HTRF biochemical: IC50
Sequence (Q9NWZ3 whole entry, species assumed): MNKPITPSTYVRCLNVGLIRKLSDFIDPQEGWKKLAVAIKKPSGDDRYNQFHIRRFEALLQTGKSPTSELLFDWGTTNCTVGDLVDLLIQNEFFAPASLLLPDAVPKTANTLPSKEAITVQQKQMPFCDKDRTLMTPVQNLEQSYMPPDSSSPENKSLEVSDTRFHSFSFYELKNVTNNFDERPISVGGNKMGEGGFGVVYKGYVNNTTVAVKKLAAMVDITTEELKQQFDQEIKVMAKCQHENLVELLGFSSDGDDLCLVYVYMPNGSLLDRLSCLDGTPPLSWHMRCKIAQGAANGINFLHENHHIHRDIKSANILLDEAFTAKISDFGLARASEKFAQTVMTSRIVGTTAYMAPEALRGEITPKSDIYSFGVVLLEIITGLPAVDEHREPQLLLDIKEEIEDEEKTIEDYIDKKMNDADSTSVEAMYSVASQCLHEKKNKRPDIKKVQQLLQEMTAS
property: IC50 (nM)
One number for each entry, in nM.

CNc1cc(-c2ccc3cc(C#N)cnn23)ncc1-c1nnc(C23CCC(NC(=O)CN4CCN(c5ccc6c(c5)C(=O)N(C5CCC(=O)NC5=O)C6=O)CC4)(CC2)CC3)s1 (stereo not shown) ... 1.2
CC(C)Nc1cc(-c2ccc3cc(C#N)cnn23)ncc1-c1nnc(N2CCN(C[C@H]3CCN(c4ccc5c(c4)C(=O)N(C4CCC(=O)NC4=O)C5=O)C3)CC2)s1 (stereo partly shown) ... 2.2
Cc1ncsc1-c1ccc(CNC(=O)[C@@H]2C[C@@H](O)CN2C(=O)C(NC(=O)[C@H]2CC[C@H](CN3CCN(c4nnc(-c5cnc(-c6ccc7cc(C#N)cnn67)cc5NC(C)C)s4)CC3)CC2)C(C)(C)C)cc1 (stereo partly shown) ... 15.4
CNc1cc(-c2ccc3cc(C#N)cnn23)ncc1-c1nnc(N2CCN(C3CCN(C(=O)c4ccc5c(c4)C(=O)N(C4CCC(=O)NC4=O)C5)CC3)CC2)s1 (stereo not shown) ... 0.3
CNc1cc(-c2ccc3cc(C#N)cnn23)ncc1-c1nnc([C@H]2CC[C@@H](NC(=O)CCC(=O)N[C@H](C(=O)N3C[C@H](O)C[C@H]3C(=O)N[C@@H](C)c3ccc(-c4scnc4C)cc3)C(C)(C)C)CC2)s1 ... 1.2

Each of the following entries comes with a recorded value; kindly state IC50 for each.
1. CC(C)Nc1cc(-c2ccc3cc(C#N)cnn23)ncc1-c1nnc(N2CCN(C3CCN(C[C@H]4CCN(c5ccc6c(c5)C(=O)N(C5CCC(=O)NC5=O)C6=O)C4)CC3)CC2)s1 (stereo partly shown)
2. CNc1cc(-c2ccc3cc(C#N)cnn23)ncc1-c1nnc([C@H]2CC[C@H](NC(=O)COc3cc(-c4scnc4C)ccc3CNC(=O)[C@@H]3C[C@@H](O)CN3C(=O)[C@@H](NC(=O)C3(F)CC3)C(C)(C)C)CC2)s1
3. CNc1cc(-c2ccc3cc(C#N)cnn23)ncc1-c1nnc(N2CCN(C(=O)C3CC4(CCN(c5ccc6c(c5)C(=O)N(C5CCC(=O)NC5=O)C6=O)C4)C3)CC2)s1 (stereo not shown)
4. CC(C)Nc1cc(-c2ccc3cc(C#N)cnn23)ncc1-c1nnc(N2CCN(C(=O)CCCCCNc3ccc4c(c3)C(=O)N(C3CCC(=O)NC3=O)C4=O)CC2)s1 (stereo not shown)
5. CC(C)Nc1cc(-c2ccc3cc(C#N)cnn23)ncc1-c1nnc(N2CCC(NC(=O)C3CCN(c4ccc5c(c4)C(=O)N(C4CCC(=O)NC4=O)C5=O)CC3)CC2)s1 (stereo not shown)
6. CNc1cc(-c2ccc3cc(C#N)cnn23)ncc1-c1nnc(N2CCN(C(=O)C[C@H](NC(=O)[C@@H]3C[C@@H](O)CN3C(=O)[C@@H](NC(=O)C3(F)CC3)C(C)(C)C)c3ccc(-c4scnc4C)cc3)CC2)s1
7. CNc1cc(-c2ccc3cc(C#N)cnn23)ncc1-c1nnc(N2CCC(C3CCN(C(=O)c4ccc5c(c4)C(=O)N(C4CCC(=O)NC4=O)C5=O)CC3)CC2)s1 (stereo not shown)
8. CNc1cc(-c2ccc3cc(C#N)cnn23)ncc1-c1nnc(N2CCN(C3CCN(C(=O)c4ccc5c(c4)C(=O)N(C4CCC(=O)NC4=O)C5=O)CC3)CC2)s1 (stereo not shown)

[1.4, 2.1, 0.5, 2.6, 7.8, 1.1, 0.9, 0.3]

Each of the following entries comes with a recorded value; kindly state IC50 for each.
1. CNc1cc(-c2ccc3cc(C#N)cnn23)ncc1-c1nnc([C@H]2CC[C@H](N(C)C[C@@H]3CCN(c4ccc5c(c4)C(=O)N(C4CCC(=O)NC4=O)C5=O)C3)CC2)s1 (stereo partly shown)
2. CNc1cc(-c2ccc3cc(C#N)cnn23)ncc1-c1nnc(N2CC3CCC(C2)N3C2CCN(C(=O)c3ccc4c(c3)C(=O)N(C3CCC(=O)NC3=O)C4)CC2)s1 (stereo not shown)
3. CNc1cc(-c2ccc3cc(C#N)cnn23)ncc1-c1nnc([C@H]2CC[C@H](NC(=O)CCCC(=O)N[C@H](C(=O)N3C[C@H](O)C[C@H]3C(=O)NCc3ccc(-c4scnc4C)cc3)C(C)(C)C)CC2)s1
4. Cc1ncsc1-c1ccc(CNC(=O)[C@@H]2C[C@@H](O)CN2C(=O)[C@@H](NC(=O)C2(F)CC2)C(C)(C)C)c(OCC(=O)N2CCC(CN3CCN(c4nnc(-c5cnc(-c6ccc7cc(C#N)cnn67)cc5NC(C)C)s4)CC3)CC2)c1
5. CNc1cc(-c2ccc3cc(C#N)cnn23)ncc1-c1nnc([C@H]2CC[C@H](NC(=O)C3CCN(c4cccc5c4C(=O)N(C4CCC(=O)NC4=O)C5=O)CC3)CC2)s1 (stereo partly shown)
6. CNc1cc(-c2ccc3cc(C#N)cnn23)ncc1-c1nnc([C@H]2CC[C@H](NC(=O)CCCOc3cc(-c4scnc4C)ccc3CNC(=O)[C@@H]3C[C@@H](O)CN3C(=O)[C@@H](NC(=O)C3(F)CC3)C(C)(C)C)CC2)s1

[0.4, 0.4, 0.9, 5.5, 0.9, 2.2]
